Taken from patent US20260053834A1.

# target: AKT1 E17K (Homo sapiens, UniProt P31749, E17K)
# Sequence (P31749 whole entry E17K): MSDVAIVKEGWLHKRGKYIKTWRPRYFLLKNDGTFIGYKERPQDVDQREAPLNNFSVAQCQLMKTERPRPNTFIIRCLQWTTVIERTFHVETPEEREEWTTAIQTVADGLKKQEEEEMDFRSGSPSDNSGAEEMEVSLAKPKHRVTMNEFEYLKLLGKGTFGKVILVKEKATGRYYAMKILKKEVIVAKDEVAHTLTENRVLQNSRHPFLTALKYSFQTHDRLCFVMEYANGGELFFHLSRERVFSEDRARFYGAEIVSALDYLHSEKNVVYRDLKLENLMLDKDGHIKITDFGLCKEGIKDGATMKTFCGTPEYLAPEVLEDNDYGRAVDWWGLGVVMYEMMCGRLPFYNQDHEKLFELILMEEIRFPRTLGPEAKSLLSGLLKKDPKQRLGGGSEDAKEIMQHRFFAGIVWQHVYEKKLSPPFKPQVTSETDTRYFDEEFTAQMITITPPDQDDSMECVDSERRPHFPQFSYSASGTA
# protocolDescription: Live cell target engagement by NanoBRET competitive probe displacement, AKT1 E17K
# assayConditions: transfected HEK293 cells, 2 h at 37° C., read-out: AKT1 E17K IC50: GeoMean IC50
# Lookup of reported IC50 keyed by entry

Previously resolved entries follow.
[
  {
    "molecule": "Cc1cc(C)c2nc(-c3cccnc3N)n(-c3ccc4c(c3)CC[C@@H]4NC(=O)c3ccc(O)c(C=O)c3)c2n1 [Example 69]",
    "testResult": "10 to 100 nM"
  },
  {
    "molecule": "Nc1ncccc1-c1nc2ccc(-n3nccn3)nc2n1-c1ccc2c(c1)CC[C@@H]2NC(=O)c1cc(F)c(O)c(C=O)c1 [Example 115]",
    "testResult": "10 to 100 nM"
  },
  {
    "molecule": "Nc1ncccc1-c1nc2ccc(-c3cnccn3)nc2n1-c1ccc2c(c1)CC[C@@H]2NC(=O)c1cc(F)c(O)c(C=O)c1 [Example 70]",
    "testResult": "10 to 100 nM"
  },
  {
    "molecule": "Nc1ncccc1-c1nc2ccc(-c3nccs3)nc2n1-c1ccc2c(c1)CC[C@@H]2NC(=O)c1cc(C=O)c(O)c(F)c1F [Example 140]",
    "testResult": "< 10 nM"
  },
  {
    "molecule": "CCc1ccc2nc(-c3cccnc3N)n(-c3ccc4c(c3)CC[C@@H]4NC(=O)c3ccc(O)c(C=O)c3)c2n1 [Example 43]",
    "testResult": "10 to 100 nM"
  },
  {
    "molecule": "COc1cc(C(=O)N[C@H]2CCc3cc(-n4c(-c5cccnc5N)nc5ccc(-n6cccn6)nc54)ccc32)cc(C=O)c1O [Example 182]",
    "testResult": "10 to 100 nM"
  },
  {
    "molecule": "CN1CCN(c2cccc(-c3ccc4nc(-c5cccnc5N)n(-c5ccc6c(c5)CC[C@@H]6NC(=O)c5ccc(O)c(C=O)c5)c4n3)c2)CC1 [Example 19]",
    "testResult": "< 10 nM"
  },
  {
    "molecule": "Nc1ncccc1-c1nc2ccc(-c3cc4n(n3)CCC4)nc2n1-c1ccc2c(c1)CC[C@@H]2NC(=O)c1cc(C=O)c(O)cc1F [Example 247]",
    "testResult": "10 to 100 nM"
  }
]

In: Name the recorded IC50 of the molecule listed here: Cn1ncc(-c2ccc3nc(-c4cccnc4N)n(-c4ccc5c(c4)CC[C@@H]5NC(=O)c4ccc(O)c(C=O)c4)c3n2)n1 [Example 120]
Out: < 10 nM

In: Name the recorded IC50 of the molecule listed here: Nc1ncccc1-c1nc2ccc(-n3cccn3)nc2n1-c1ccc2c(c1)C(=O)C[C@@H]2NC(=O)c1ccc(O)c(C=O)c1 [Example 85]
Out: 100 to 2000 nM

In: Name the recorded IC50 of the molecule listed here: Nc1ncccc1-c1nc2ccc(-c3ccccc3)nc2n1-c1ccc2c(c1)CC[C@@H]2NC(=O)C1(c2cnc(C=O)c(O)c2)CC1 [Example 12]
Out: 100 to 2000 nM

In: Name the recorded IC50 of the molecule listed here: Nc1ncccc1-c1nc2ccc(-c3nccnc3F)nc2n1-c1ccc2c(c1)CC[C@@H]2NC(=O)c1ccc(O)c(C=O)c1 [Example 109]
Out: 10 to 100 nM

In: Name the recorded IC50 of the molecule listed here: Cc1cnn(-c2ccc3nc(-c4cccnc4N)n(-c4ccc5c(c4)CC[C@@H]5NC(=O)c4ccc(O)c(C=O)c4)c3n2)c1 [Example 77]
Out: 10 to 100 nM

In: Name the recorded IC50 of the molecule listed here: C#Cc1cc(C(=O)N[C@H]2CCc3cc(-n4c(-c5cccnc5N)nc5ccc(-n6cccn6)nc54)ccc32)cc(C=O)c1O [Example 101]
Out: 10 to 100 nM

In: Name the recorded IC50 of the molecule listed here: COc1cc(O)c(C=O)cc1C(=O)N[C@H]1CCc2cc(-n3c(-c4cccnc4N)nc4ccc(-c5ccccc5)nc43)ccc21 [Example 17]
Out: 100 to 2000 nM

In: Name the recorded IC50 of the molecule listed here: Nc1ncccc1-c1nc2ccc(-c3nc(C(F)F)cs3)nc2n1-c1ccc2c(c1)CC[C@@H]2NC(=O)c1ccc(O)c(C=O)c1 [Example 147]
Out: 10 to 100 nM

In: Name the recorded IC50 of the molecule listed here: Nc1ncccc1-c1nc2ccc(-c3ccccc3)nc2n1-c1ccc2c(c1)CCC2C(=O)Nc1ccc(O)c(C=O)c1 (centres unmarked) [Example 27]
Out: 10 to 100 nM

In: Name the recorded IC50 of the molecule listed here: Nc1ncccc1-c1nc2ccc(-n3cccn3)nc2n1-c1ccc2c(c1)CC[C@@H]2N1Cc2cc(O)c(C=O)cc2C1=O [Example 208]
Out: ≥ 2000 nM

In: Name the recorded IC50 of the molecule listed here: COc1cc(C(=O)N[C@H]2CCc3cc(-n4c(-c5cccnc5N)nc5ccc(-c6ccccc6)nc54)ccc32)cc(C=O)c1O [Example 36]
Out: 10 to 100 nM

In: Name the recorded IC50 of the molecule listed here: N#Cc1cc(O)c(C=O)cc1C(=O)N[C@H]1CCc2cc(-n3c(-c4cccnc4N)nc4ccc(-n5cccn5)nc43)ccc21 [Example 250]
Out: ≥ 2000 nM

In: Name the recorded IC50 of the molecule listed here: Nc1ncccc1-c1nc2ccc(-n3cccn3)nc2n1-c1ccc2c(c1)CC[C@@H]2NC(=O)c1ccc(F)c(C=O)c1 [Example 191]
Out: 10 to 100 nM

In: Name the recorded IC50 of the molecule listed here: COc1ccc2nc(-c3cccnc3N)n(-c3ccc4c(c3)CC[C@@H]4NC(=O)c3ccc(O)c(C=O)c3)c2n1 [Example 46]
Out: 100 to 2000 nM

In: Name the recorded IC50 of the molecule listed here: Cc1coc(-c2ccc3nc(-c4cccnc4N)n(-c4ccc5c(c4)CC[C@@H]5NC(=O)c4ccc(O)c(C=O)c4)c3n2)n1 [Example 178]
Out: 10 to 100 nM

In: Name the recorded IC50 of the molecule listed here: Nc1ccn(-c2ccc3nc(-c4cccnc4N)n(-c4ccc5c(c4)CC[C@@H]5NC(=O)c4ccc(O)c(C=O)c4)c3n2)n1 [Example 134]
Out: 10 to 100 nM

In: Name the recorded IC50 of the molecule listed here: N#Cc1ccc2nc(-c3cccnc3N)n(-c3ccc4c(c3)CC[C@@H]4NC(=O)c3ccc(O)c(C=O)c3)c2n1 [Example 79]
Out: 100 to 2000 nM

In: Name the recorded IC50 of the molecule listed here: Cc1cc(C(=O)N[C@H]2CCc3cc(-n4c(-c5cccnc5N)nc5ccc(-c6ccccc6)nc54)ccc32)cc(C=O)c1O [Example 41]
Out: 100 to 2000 nM
